src = a melting point compilation (Tetko et al.; mined from patent text by program, amines drawn as free bases though some values may be those of a salt)

metric_name: melting point

[in] Which melting point value belongs to "O=C(O)C(OCOc1ccc(-c2ccc(Cl)cc2)cc1)(C(F)(F)F)C(F)(F)F" ?
[out] 134 to 135 °C

[in] Which melting point value belongs to "Cc1nc2c(S(N)(=O)=O)cccc2s1" ?
[out] 236 to 239 °C

[in] Which melting point value belongs to "N#Cc1c(Cl)c2cc(Cl)ccc2n(Cc2ccccc2)c1=O" ?
[out] 243 °C

[in] Which melting point value belongs to "Cc1cc(O)c(C)c(Br)c1C" ?
[out] 86 to 88 °C

[in] Which melting point value belongs to "CCOC(=O)CC(=O)Nc1c(C(=O)OC)cccc1C(F)(F)F" ?
[out] 87 °C

[in] Which melting point value belongs to "O=[N+]([O-])c1ccc(CCN2CCN(c3ccc([N+](=O)[O-])cc3Cl)CC2)cc1" ?
[out] 100 to 102 °C

[in] Which melting point value belongs to CC(C)(C)OC(=O)NC1CCCCC1NC(=O)c1ccccn1 (configuration not stated) ?
[out] 78 to 79 °C

[in] Which melting point value belongs to "C=C(n1c(=O)n(CCCl)c2ccccc21)C(F)(F)F" ?
[out] 158 to 160 °C

[in] Which melting point value belongs to "CCNC(=O)c1c([Si](C)(C)C)ccc(C=O)c1Cl" ?
[out] 140 to 142 °C

[in] Which melting point value belongs to "Cc1cc(C)c(-n2ccc3c(OC(C)C)nn(C)c(=O)c32)c(C)c1" ?
[out] 108 to 111 °C

[in] Which melting point value belongs to "COc1ccc(CNC(SC)=C(C#N)C#N)cc1" ?
[out] 100 to 101 °C

[in] Which melting point value belongs to "COc1ccc(C(=O)Nc2ccc(F)c(F)c2)cc1N" ?
[out] 171 to 172 °C

[in] Which melting point value belongs to C=CCc1cc(NC(C)=O)ccc1OCC1(O)CN2CCC1CC2 (configuration not stated) ?
[out] 170 to 172 °C

[in] Which melting point value belongs to COc1ccc2nc(COc3ccc(CC(S)C(N)=O)cc3)n(C)c2c1 (configuration not stated) ?
[out] 204 to 208 °C

[in] Which melting point value belongs to "COC(=O)CCCc1cc2cc(Cl)ccc2n1S(=O)(=O)c1cccc2cccnc12" ?
[out] 120 to 124 °C

[in] Which melting point value belongs to "COc1ccc(C(=O)Nc2nnn[nH]2)c(OC(C)C)c1" ?
[out] 212 to 213 °C

[in] Which melting point value belongs to CC(c1cc(Cl)cc(Cl)c1O)c1cc(F)cc(Cc2cc(Cl)ccc2O)c1O (configuration not stated) ?
[out] 166 °C

[in] Which melting point value belongs to COc1ccc(C2=NN(c3nc4ccccc4s3)C(=O)[C@H]3CC=CC[C@@H]23)cc1OC (relative stereo) ?
[out] 176 to 177 °C

[in] Which melting point value belongs to "O=C(CCc1ccccc1)OCCOC(=O)NC1(C(=O)O)CC1" ?
[out] 133 to 134 °C

[in] Which melting point value belongs to "CCOC(=O)NCCN1CCC(NC(=O)c2cc(Cl)c(N)c3c2OCCC3)CC1" ?
[out] 160 °C

[in] Which melting point value belongs to Cc1ccc(-c2ccc3c(c2)C=C(C(=O)O)CC(c2ccccc2)O3)cc1 (configuration not stated) ?
[out] 296 to 297 °C

[in] Which melting point value belongs to "CSC(=Nc1c(C(C)C)cc(Oc2ccc(Cl)cc2)nc1C(C)C)NC(C)(C)C" ?
[out] 95 to 100 °C
